Measured viability, T/C, listed per entry for reference.
- Test system: 138582-337-R-J1-PDC spheroids with HUVEC/MSC, viability
- method notes: Anticancer human tumor 138582-337-R-J1-PDC patient-derived Merkel cell tumor cell line growth inhibition [IpAb]
- protocol conditions: second compound 1 µM; first compound 0.316 µM; stronger effect = lower value

Cc1nc(NC(=O)N2CCCC2C(N)=O)sc1-c1ccnc(C(C)(C)C(F)(F)F)c1 (stereo unspecified) + CCN1CCN(Cc2ccc(Nc3ncc(F)c(-c4cc(F)c5nc(C)n(C(C)C)c5c4)n3)nc2)CC1; 54.4%
CCCS(=O)(=O)Nc1ccc(F)c(C(=O)c2c[nH]c3ncc(-c4ccc(Cl)cc4)cc23)c1F + CC(C)NCC(C(=O)N1CCN(c2ncnc3c2C(C)CC3O)CC1)c1ccc(Cl)cc1; 61.3%
CC1(C)CCC(CN2CCN(c3ccc(C(=O)NS(=O)(=O)c4ccc(NCC5CCOCC5)c([N+](=O)[O-])c4)c(Oc4cnc5[nH]ccc5c4)c3)CC2)=C(c2ccc(Cl)cc2)C1 + CC(C)NCC(C(=O)N1CCN(c2ncnc3c2C(C)CC3O)CC1)c1ccc(Cl)cc1; 63.8%
Cn1nccc1Nc1nccc(-c2ccn(C(CO)c3ccc(Cl)c(F)c3)c(=O)c2)n1 (stereo unspecified) + CC(C)NCC(C(=O)N1CCN(c2ncnc3c2C(C)CC3O)CC1)c1ccc(Cl)cc1; 67.6%
COc1c(OCCCN2CCOCC2)ccc2c3n(c(=NC(=O)c4cnc(N)nc4)nc12)CCN3 + CCN1CCN(Cc2ccc(Nc3ncc(F)c(-c4cc(F)c5nc(C)n(C(C)C)c5c4)n3)nc2)CC1; 5.6%
CCCS(=O)(=O)Nc1ccc(F)c(C(=O)c2c[nH]c3ncc(-c4ccc(Cl)cc4)cc23)c1F + CCN1CCN(Cc2ccc(Nc3ncc(F)c(-c4cc(F)c5nc(C)n(C(C)C)c5c4)n3)nc2)CC1; 89.1%
COc1c(OCCCN2CCOCC2)ccc2c3n(c(=NC(=O)c4cnc(N)nc4)nc12)CCN3 + CC(C)NCC(C(=O)N1CCN(c2ncnc3c2C(C)CC3O)CC1)c1ccc(Cl)cc1; 13.9%
Cn1nccc1Nc1nccc(-c2ccn(C(CO)c3ccc(Cl)c(F)c3)c(=O)c2)n1 (stereo unspecified) + CCN1CCN(Cc2ccc(Nc3ncc(F)c(-c4cc(F)c5nc(C)n(C(C)C)c5c4)n3)nc2)CC1; 83.2%
C=CC(=O)N1CCN(c2nc(=O)n(-c3c(C)ccnc3C(C)C)c3nc(-c4c(O)cccc4F)c(F)cc23)C(C)C1 (stereo unspecified) + CCN1CCN(Cc2ccc(Nc3ncc(F)c(-c4cc(F)c5nc(C)n(C(C)C)c5c4)n3)nc2)CC1; 111%
C=CC(=O)N1CCN(c2nc(=O)n(-c3c(C)ccnc3C(C)C)c3nc(-c4c(O)cccc4F)c(F)cc23)C(C)C1 (stereo unspecified) + CC(C)NCC(C(=O)N1CCN(c2ncnc3c2C(C)CC3O)CC1)c1ccc(Cl)cc1; 71.4%

Please turn your attention to the following entry.
// query Query: viability, T/C; subject: Cn1ncc(Cl)c1-c1cc(C(=O)NC(CN)Cc2cccc(F)c2)sc1Cl (stereo unspecified) + CC(C)NCC(C(=O)N1CCN(c2ncnc3c2C(C)CC3O)CC1)c1ccc(Cl)cc1
// result 75.7%

* * *

- System: 138582-337-R-J1-PDC spheroids with HUVEC/MSC, viability
- method notes: Anticancer human tumor 138582-337-R-J1-PDC cell line growth inhibition [IpAb];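 further: spheroids exposed to compounds for seven days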
- protocol conditions: curve of first compound; second compound 10 µM
property measured: IC50

CC1(C)CCC(CN2CCN(c3ccc(C(=O)NS(=O)(=O)c4ccc(NCC5CCOCC5)c([N+](=O)[O-])c4)c(Oc4cnc5[nH]ccc5c4)c3)CC2)=C(c2ccc(Cl)cc2)C1 + CC(C)NCC(C(=O)N1CCN(c2ncnc3c2C(C)CC3O)CC1)c1ccc(Cl)cc1; < 31.6 nM

// query Request the reported IC50 associated with Cn1nccc1Nc1nccc(-c2ccn(C(CO)c3ccc(Cl)c(F)c3)c(=O)c2)n1 (stereo not drawn) + CC(C)NCC(C(=O)N1CCN(c2ncnc3c2C(C)CC3O)CC1)c1ccc(Cl)cc1
// result < 31.6 nM
